Experiment: Cytotoxicity in MRC5 fibroblasts, 5-day treatment
Conditions: human, MRC5 fibroblasts
CC50 at 5 days for assorted compounds

Reference set (5 entries):
C[C@@]1(O)[C@H](O)[C@@H](CO)O[C@H]1n1ccc(N)nc1=O :: 69 µM
O=C(N[C@H](CO)[C@H](O)c1ccc([N+](=O)[O-])cc1)C(Cl)Cl :: > 89 µM
COc1ccc(C[C@H](N)C(=O)N[C@H]2[C@@H](O)[C@H](n3cnc4c(N(C)C)ncnc43)O[C@@H]2CO)cc1 :: 0.24 µM
C[C@@]1(F)[C@H](O)[C@@H](CO)O[C@H]1n1ccc(N)nc1=O :: > 89 µM
[N-]=[N+]=N[C@]1(CO)O[C@@H](n2ccc(N)nc2=O)[C@H](O)[C@@H]1O :: > 89 µM

Task: Report CC50 at 5 days for CCOc1nc(N)nc2c1ncn2[C@@H]1O[C@@H]2COP(=O)(OC(C)C)O[C@H]2[C@@]1(C)F (stereo partly drawn) please.
Result: > 89 µM
